Data origin: ChEMBL document CHEMBL1127576

# PROCEDURE SUMMARY: Therapeutic index was measured as concentration required to cause 50% death of uninfected MT-4- cells to IC50 concentration required to inhibit syncytia formation by 50% in HIV-1 infected MT-4 cells
# Assay type: cell-based, MT4
# MEASUREMENT SETUP: human, uninfected MT-4 cells and HIV-1 infected MT-4 cells; read-out: TI
selectivity ratio vs 300: less than gives T; not less than gives F.

1. Nc1ccn([C@@H]2CS[C@H](CO)O2)c(=O)n1    F
2. CCOP(=O)(OCC)C(=O)OCC1OC(n2ccc(NC(C)=O)nc2=O)CS1 (stereo not drawn)    F
3. CC(=O)Nc1ccn(C2CSC(COC(=O)P(=O)(O)O)O2)c(=O)n1 (stereo not drawn)    F
4. Nc1ccn(C2CSC(COP(=O)(O)C(=O)O)O2)c(=O)n1 (stereo not drawn)    T
5. CCOP(=O)(CC(=O)OCC1OC(n2ccc(N)nc2=O)CS1)OCC (stereo not drawn)    T
6. O=C(CP(=O)(O)O)Nc1ccn(C2CSC(CO)O2)c(=O)n1 (stereo not drawn)    T
7. CCOP(=O)(CC(=O)Nc1ccn(C2CSC(CO)O2)c(=O)n1)OCC (stereo not drawn)    T
